test system: human Factor XI mRNA; assay: Dose-dependent inhibition in cyno primary hepatocytes, electroporation (Example 6); assay type: cell-based, cynomolgus monkey; settings: 20 nM, approx. 16 h
Decide using percent inhibition of human Factor XI mRNA: a value greater than or equal to 40% is Satisfied, a smaller one is Not satisfied.

{"substance": "417002 (antisense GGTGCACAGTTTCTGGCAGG; 2-13-5 gapmer, wing sugar chemistry not given here, further chemistry not given here) [compound 417002]", "class.label": "Not satisfied"}
{"substance": "416925 (antisense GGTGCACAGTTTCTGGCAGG; 3-14-3 chimeric gapmer, wing sugar chemistry not given here, further chemistry not given here) [compound 416925]", "class.label": "Satisfied"}
{"substance": "416999 (antisense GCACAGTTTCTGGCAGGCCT; 2-13-5 gapmer, wing sugar chemistry not given here, further chemistry not given here) [compound 416999]", "class.label": "Satisfied"}
{"substance": "416825 (antisense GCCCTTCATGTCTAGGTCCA; 5-10-5 gapmer, wing sugar chemistry not given here, further chemistry not given here) [compound 416825]", "class.label": "Satisfied"}

---

system: human Factor XI mRNA; test: Dose-dependent inhibition in HepG2 cells, electroporation (Example 5); format: cell-based; details: 625 nM, approx. 16 h, relative to untreated control cells
The following substances are shown together with reported percent inhibition of human Factor XI mRNA values.
quantity.name: percent inhibition of human Factor XI mRNA (%)

{"substance": "416892 (antisense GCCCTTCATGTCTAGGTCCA; 3-14-3 chimeric gapmer, wing sugar chemistry not given here, further chemistry not given here) [compound 416892]", "val": 66}
{"substance": "417002 (antisense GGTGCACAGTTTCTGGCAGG; 2-13-5 gapmer, wing sugar chemistry not given here, further chemistry not given here) [compound 417002]", "val": 59}
{"substance": "416838 (antisense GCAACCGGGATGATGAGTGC; 5-10-5 gapmer, wing sugar chemistry not given here, further chemistry not given here) [compound 416838]", "val": 66}
{"substance": "416999 (antisense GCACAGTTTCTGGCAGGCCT; 2-13-5 gapmer, wing sugar chemistry not given here, further chemistry not given here) [compound 416999]", "val": 61}
{"substance": "416850 (antisense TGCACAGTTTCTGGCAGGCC; 5-10-5 gapmer, wing sugar chemistry not given here, further chemistry not given here) [compound 416850]", "val": 69}

---

experiment: Tolerability in CD1 mice: hematology assays (Example 21); type: in vivo; conditions: 50 mg/kg s.c. twice per week for 6 weeks
The following sequences are shown together with reported WBC values.
quantity.name: WBC

{"sequence": "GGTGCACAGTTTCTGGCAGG (all C 5-methyl, all phosphorothioate, sugars by position not given here; MOE gapmer) [ISIS 413481, 5-10-5 MOE gapmer]", "val": "7 10^3/μL"}
{"sequence": "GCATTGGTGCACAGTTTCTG (antisense; all C 5-methyl, all phosphorothioate, sugars by position not given here; MOE gapmer, 5-10-5) [ISIS 412224, 5-10-5 MOE gapmer]", "val": "9 10^3/μL"}
{"sequence": "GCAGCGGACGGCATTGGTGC (antisense; all C 5-methyl, all phosphorothioate, sugars by position not given here; MOE gapmer, 5-10-5) [ISIS 412225, 5-10-5 MOE gapmer]", "val": "7 10^3/μL"}
{"sequence": "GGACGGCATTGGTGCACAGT (antisense; all C 5-methyl, all phosphorothioate, sugars by position not given here; MOE gapmer, 5-10-5) [ISIS 413482, 5-10-5 MOE gapmer]", "val": "8 10^3/μL"}
{"sequence": "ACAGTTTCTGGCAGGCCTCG (antisense; all C 5-methyl, all phosphorothioate, sugars by position not given here; MOE gapmer, 5-10-5) [ISIS 412223, 5-10-5 MOE gapmer]", "val": "7 10^3/μL"}

---

Test system: human Factor XI mRNA
Test: Dose-dependent inhibition in HepG2 cells, lipofectin (Example 5)
Assay type: cell-based
Conditions: 2.34 nM, 16 hours
Method: Cells were plated at a density of 10,000 cells per well and transfected using lipofectin reagent with 2.34 nM, 4.69 nM, 9.375 nM, 18.75 nM, 37.5 nM, and 75 nM concentrations of antisense oligonucleotide, as specified in Table 11. After a treatment period of approximately 16 hours, RNA was isolated from the cells and human Factor XI mRNA levels were measured by quantitative real-time PCR. […] Factor XI mRNA levels were adjusted according to total RNA content, as measured by RIBOGREEN®. […]
quantity.name: percent inhibition of human Factor XI mRNA, relative to untreated control cells (%)

{"substance": "416892 (antisense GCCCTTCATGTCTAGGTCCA; 3-14-3 chimeric gapmer, wing sugar chemistry not given here, further chemistry not given here) [compound 416892]", "val": 14}
{"substance": "416826 (antisense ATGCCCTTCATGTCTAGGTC; 5-10-5 gapmer, wing sugar chemistry not given here, further chemistry not given here) [compound 416826]", "val": 15}
{"substance": "416825 (antisense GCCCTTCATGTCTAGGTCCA; 5-10-5 gapmer, wing sugar chemistry not given here, further chemistry not given here) [compound 416825]", "val": 4}
{"substance": "416850 (antisense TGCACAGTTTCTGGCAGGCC; 5-10-5 gapmer, wing sugar chemistry not given here, further chemistry not given here) [compound 416850]", "val": 24}
{"substance": "417002 (antisense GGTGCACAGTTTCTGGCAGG; 2-13-5 gapmer, wing sugar chemistry not given here, further chemistry not given here) [compound 417002]", "val": 17}

---

test system: human Factor XI mRNA; assay: Dose-dependent inhibition in HepG2 cells, lipofectin (Example 4); format: cell-based; settings: 37.5 nM, 16 hours
In the oligonucleotide strings, read from the 5' end, every base follows the letter of its sugar. An asterisk marks phosphorothioate; unmarked linkages are phosphodiester. Other units and linkages are bracketed, terminal groups are in braces. A string of capitals states the bases alone. e = 2'-O-(2-methoxyethyl) (MOE); [5mC] = 5-methylcytosine; d = 2'-deoxy (DNA)
quantity.name: percent inhibition of Factor XI mRNA, relative to untreated control cells (%)

{"substance": "416969 (antisense eG*e[5mC]*d[5mC]*d[5mC]*dT*dT*d[5mC]*dA*dT*dG*dT*d[5mC]*dT*dA*dG*eG*eT*e[5mC]*e[5mC]*eA) [compound 416969]", "experimental.system": "human Factor XI mRNA", "quantity.unit": "%", "val": 61}
{"substance": "416842 (antisense eT*eG*eA*eG*eA*dT*dT*d[5mC]*dT*dT*dT*dG*dG*dG*d[5mC]*e[5mC]*eA*eT*eT*e[5mC]) [compound 416842]", "experimental.system": "human Factor XI mRNA", "quantity.unit": "%", "val": 62}
{"substance": "416826 (antisense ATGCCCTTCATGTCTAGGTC; 5-10-5 gapmer, wing sugar chemistry not given here, further chemistry not given here) [compound 416826]", "experimental.system": "human Factor XI mRNA", "quantity.unit": "%", "val": 58}
{"substance": "416926 (antisense eT*eG*eG*dT*dG*d[5mC]*dA*d[5mC]*dA*dG*dT*dT*dT*d[5mC]*dT*dG*dG*e[5mC]*eA*eG) [compound 416926]", "experimental.system": "human Factor XI mRNA", "quantity.unit": "%", "val": 63}
{"substance": "416989 (antisense eG*eA*dG*dA*dT*dT*d[5mC]*dT*dT*dT*dG*dG*dG*d[5mC]*d[5mC]*eA*eT*eT*e[5mC]*e[5mC]) [compound 416989]", "experimental.system": "human Factor XI mRNA", "quantity.unit": "%", "val": 62}
{"substance": "416993 (antisense e[5mC]*eT*dT*dT*dG*dA*dG*dA*dT*dT*d[5mC]*dT*dT*dT*dG*eG*eG*e[5mC]*e[5mC]*eA) [compound 416993]", "experimental.system": "human Factor XI mRNA", "quantity.unit": "%", "val": 50}
{"substance": "416838 (antisense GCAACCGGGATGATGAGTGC; 5-10-5 gapmer, wing sugar chemistry not given here, further chemistry not given here) [compound 416838]", "experimental.system": "human Factor XI mRNA", "quantity.unit": "%", "val": 64}
{"substance": "416827 (antisense eT*eA*eT*eG*e[5mC]*d[5mC]*d[5mC]*dT*dT*d[5mC]*dA*dT*dG*dT*d[5mC]*eT*eA*eG*eG*eT) [compound 416827]", "experimental.system": "human Factor XI mRNA", "quantity.unit": "%", "val": 62}
{"substance": "416856 (antisense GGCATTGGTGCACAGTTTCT; 5-10-5 gapmer, wing sugar chemistry not given here, further chemistry not given here) [compound 416856]", "experimental.system": "human Factor XI mRNA", "quantity.unit": "%", "val": 58}
{"substance": "416892 (antisense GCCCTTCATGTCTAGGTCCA; 3-14-3 chimeric gapmer, wing sugar chemistry not given here, further chemistry not given here) [compound 416892]", "experimental.system": "human Factor XI mRNA", "quantity.unit": "%", "val": 70}

# credit: patent US20120083522A1
